- measurement.target: Serine/threonine-protein kinase MRCK beta (Homo sapiens);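 further: averaged inhibition values against MRCK beta, part of the GSK PKIS profiling dataset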
- study.conditions: at 1 µM

smiles.str	inhibition, %
Cn1c(-c2nonc2N)nc2cnccc21	14.4
COC(=O)Nc1nc2cc(Oc3ccc(NC(=O)Nc4ccccc4)cc3)ccc2[nH]1	0.05
CCS(=O)(=O)c1ccc(OC)c(Nc2ncc(-c3cccc(F)c3)o2)c1	0.78
Fc1ccc(Nc2nccc(-c3c(-c4ccc(C(F)(F)F)cc4)nn4ncccc34)n2)cc1F	1.04
Cc1ccc(-c2cc3c(NC(=O)C4CC4)ncnc3o2)cc1	1.58
COc1ccc2ncn(-c3cc(O[C@H](C)c4ccccc4C(F)(F)F)c(C(N)=O)s3)c2c1	2.31
COc1ccc(Nc2ncc(-c3ccccc3)o2)cc1OC	1.74
N#Cc1ccc2c(-c3ccnc(NC4CC4)n3)c(-c3ccc(F)cc3)nn2c1	0.52
O=C(O[C@H]1CN[C@H](C#Cc2cc3ncnc(Nc4ccc(OCc5cccc(F)c5)c(Cl)c4)c3s2)C1)N1CCOCC1	0.26
CCOc1ccc2c(-c3ccnc(Nc4cc(OC)cc(C(F)(F)F)c4)n3)cnn2n1	0.13
CNC(=O)c1ncccc1Nc1nc(Nc2cc3c(cc2OC)CCCN3C(=O)CN(C)C)nc2[nH]ccc12	2.41
COc1cc2c(cc1Nc1nc(Nc3cccc(F)c3C(N)=O)c3cc[nH]c3n1)N(C(=O)CN1CCN(C(C)C)CC1)CC2	2.33
CCCNc1cccc(-n2ncc3c(N/N=C/c4ccncc4)ncnc32)c1	0.92
CS(=O)(=O)CCNCc1ccc(-c2ccc3ncnc(Nc4ccc(OCc5ccccc5)cc4)c3c2)o1	1.22
N#Cc1cccc(Nc2ncc(-c3ccccc3)o2)c1	-0.28
COc1ccc(-c2nn3ncccc3c2-c2ccnc(Nc3ccc(F)c(F)c3)n2)cc1	-0.11
NC(=O)c1ccc2c(-c3ccnc(NCCCO)n3)c(-c3ccc(F)cc3)nn2c1	2.28

====

- measurement.target: Casein kinase I isoform gamma-3 (Homo sapiens) (UniProt Q9Y6M4);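 further: reported value is the mean percent inhibition of the kinase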
- Sequence (Q9Y6M4 whole entry, looked up, canonical isoform): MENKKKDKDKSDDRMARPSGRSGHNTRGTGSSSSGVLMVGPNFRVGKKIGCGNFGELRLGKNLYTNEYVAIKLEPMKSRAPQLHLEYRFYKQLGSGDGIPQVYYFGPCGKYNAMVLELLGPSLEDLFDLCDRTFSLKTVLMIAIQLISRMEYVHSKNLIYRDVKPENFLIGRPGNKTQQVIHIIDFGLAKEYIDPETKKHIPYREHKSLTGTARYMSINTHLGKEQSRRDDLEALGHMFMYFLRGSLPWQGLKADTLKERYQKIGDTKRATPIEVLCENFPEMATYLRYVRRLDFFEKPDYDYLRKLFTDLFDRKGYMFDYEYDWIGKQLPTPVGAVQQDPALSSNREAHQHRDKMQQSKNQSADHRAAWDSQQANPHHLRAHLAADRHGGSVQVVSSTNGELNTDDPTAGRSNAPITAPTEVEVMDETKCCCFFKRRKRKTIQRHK
- study.conditions: at 0.1 µM

smiles.str	measurement.target	inhibition / %
Cc1c2ccc(N(C)c3ccnc(Nc4cccc(S(N)(=O)=O)c4)n3)cc2nn1C	Casein kinase I isoform gamma-3 (Homo sapiens) (UniProt Q9Y6M4)	-0.12
COc1cc2c(cc1Nc1nc(Nc3cccc(F)c3C(N)=O)c3cc[nH]c3n1)N(C(=O)CN1CCN(C(C)C)CC1)CC2	Casein kinase I isoform gamma-3 (Homo sapiens) (UniProt Q9Y6M4)	3.51
CS(=O)(=O)CCNCc1ccc(-c2ccc3ncnc(Nc4ccc(OCc5cccc(C(F)(F)F)c5)cc4)c3c2)o1	Casein kinase I isoform gamma-3 (Homo sapiens) (UniProt Q9Y6M4)	3.14
NS(=O)(=O)c1ccc(N/N=C2\C(=O)Nc3ccc(C(=O)NCc4ccncc4)cc32)cc1	Casein kinase I isoform gamma-3 (Homo sapiens) (UniProt Q9Y6M4)	1.86
COc1ccc(-c2nn3ncccc3c2-c2ccnc(Nc3ccc(F)c(F)c3)n2)cc1	Casein kinase I isoform gamma-3 (Homo sapiens) (UniProt Q9Y6M4)	3.89
CCOc1ccc2c(-c3ccnc(Nc4cc(OC)cc(C(F)(F)F)c4)n3)cnn2n1	Casein kinase I isoform gamma-3 (Homo sapiens) (UniProt Q9Y6M4)	-2.09
OCCCNc1nccc(-c2c(-c3ccc(F)cc3)nn3cc(C(F)(F)F)ccc23)n1	Casein kinase I isoform gamma-3 (Homo sapiens) (UniProt Q9Y6M4)	1.62
c1ccc(-c2n[nH]cc2-c2ccnc(-c3ccc(OCCn4ccnc4)cc3)c2)nc1	Casein kinase I isoform gamma-3 (Homo sapiens) (UniProt Q9Y6M4)	0.42
CCS(=O)(=O)c1ccc(OC)c(Nc2ncc(-c3cccc(F)c3)o2)c1	Casein kinase I isoform gamma-3 (Homo sapiens) (UniProt Q9Y6M4)	3.7
Cn1c(-c2nonc2N)nc2cnccc21	Casein kinase I isoform gamma-3 (Homo sapiens) (UniProt Q9Y6M4)	1.53
NS(=O)(=O)c1ccc(N/N=C2\C(=O)Nc3cccc(CCc4ccncc4)c32)cc1	Casein kinase I isoform gamma-3 (Homo sapiens) (UniProt Q9Y6M4)	0.32
CCS(=O)(=O)c1ccc(OC)c(Nc2ncc(-c3cccc(C(C)=O)c3)o2)c1	Casein kinase I isoform gamma-3 (Homo sapiens) (UniProt Q9Y6M4)	1.93
O=C1Nc2ccccc2/C1=C1\CCc2cc(O)ccc21	Casein kinase I isoform gamma-3 (Homo sapiens) (UniProt Q9Y6M4)	4.01

====

- measurement.target: Tyrosine-protein kinase Mer (Homo sapiens) (UniProt Q12866);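 further: values are mean inhibition of human MER kinase, from the GSK PKIS profiling panel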
- Sequence (Q12866 whole entry): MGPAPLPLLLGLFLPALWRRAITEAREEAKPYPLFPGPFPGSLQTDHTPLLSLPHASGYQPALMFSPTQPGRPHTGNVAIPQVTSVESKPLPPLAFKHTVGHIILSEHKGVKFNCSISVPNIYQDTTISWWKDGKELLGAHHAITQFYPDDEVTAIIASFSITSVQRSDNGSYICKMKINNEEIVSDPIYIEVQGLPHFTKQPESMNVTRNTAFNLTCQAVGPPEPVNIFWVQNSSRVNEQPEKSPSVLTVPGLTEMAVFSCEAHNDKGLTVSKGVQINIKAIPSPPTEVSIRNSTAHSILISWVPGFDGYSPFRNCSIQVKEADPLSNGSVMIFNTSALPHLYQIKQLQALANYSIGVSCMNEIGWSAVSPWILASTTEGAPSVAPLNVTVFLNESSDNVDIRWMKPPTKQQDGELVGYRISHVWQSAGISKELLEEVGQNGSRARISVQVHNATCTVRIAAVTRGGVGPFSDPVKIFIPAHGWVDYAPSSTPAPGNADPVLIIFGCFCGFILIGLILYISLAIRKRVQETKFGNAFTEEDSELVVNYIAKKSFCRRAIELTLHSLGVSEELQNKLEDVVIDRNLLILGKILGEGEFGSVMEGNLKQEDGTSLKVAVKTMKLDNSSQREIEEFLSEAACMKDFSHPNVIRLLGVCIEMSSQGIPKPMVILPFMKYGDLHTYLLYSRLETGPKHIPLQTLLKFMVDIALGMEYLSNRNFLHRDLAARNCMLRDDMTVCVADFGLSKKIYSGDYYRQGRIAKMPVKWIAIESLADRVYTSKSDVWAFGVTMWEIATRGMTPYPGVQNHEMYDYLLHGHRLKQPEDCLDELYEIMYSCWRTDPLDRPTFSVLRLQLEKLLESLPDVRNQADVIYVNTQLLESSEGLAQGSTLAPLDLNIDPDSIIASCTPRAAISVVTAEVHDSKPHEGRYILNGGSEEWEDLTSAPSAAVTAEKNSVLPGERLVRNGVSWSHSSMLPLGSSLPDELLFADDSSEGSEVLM
- study.conditions: at 1 µM

molecule	measurement.target	measurement.unit	inhibition
Cn1c(-c2nonc2N)nc2cnccc21	Tyrosine-protein kinase Mer (Homo sapiens) (UniProt Q12866)	%	3.84
CCN1CCC(C(=O)Nc2n[nH]c3nnc(-c4cccc(F)c4F)cc23)CC1	Tyrosine-protein kinase Mer (Homo sapiens) (UniProt Q12866)	%	2.84
COC(=O)Nc1nc2ccc(Oc3ccc(NC(=O)Nc4cc(C(F)(F)F)ccc4F)cc3)cc2s1	Tyrosine-protein kinase Mer (Homo sapiens) (UniProt Q12866)	%	4.8
c1cnn2ncc(-c3ccnc(NCCCN4CCOCC4)n3)c2c1	Tyrosine-protein kinase Mer (Homo sapiens) (UniProt Q12866)	%	-0.16
Fc1ccc(Nc2nccc(-c3c(-c4ccc(C(F)(F)F)cc4)nn4ncccc34)n2)cc1F	Tyrosine-protein kinase Mer (Homo sapiens) (UniProt Q12866)	%	2.81
COc1cccc(-n2ncc3c(N/N=C/c4ccc(C(=O)NCCN(C)C)cc4)ncnc32)c1	Tyrosine-protein kinase Mer (Homo sapiens) (UniProt Q12866)	%	59.3
COC(=O)Nc1nc2cc(Oc3ccc(NC(=O)Nc4ccccc4)cc3)ccc2[nH]1	Tyrosine-protein kinase Mer (Homo sapiens) (UniProt Q12866)	%	2.99
COc1cc(Nc2ncc(-c3ccccc3)o2)cc(OC)c1	Tyrosine-protein kinase Mer (Homo sapiens) (UniProt Q12866)	%	4.87
NS(=O)(=O)c1ccc(N/N=C2\C(=O)Nc3ccc(C(=O)NCc4ccncc4)cc32)cc1	Tyrosine-protein kinase Mer (Homo sapiens) (UniProt Q12866)	%	1.37
CS(=O)(=O)CCNCc1ccoc1-c1ccc2ncnc(Nc3ccc(OCc4ccccc4)cc3)c2c1	Tyrosine-protein kinase Mer (Homo sapiens) (UniProt Q12866)	%	25.2
N#Cc1ccc2c(-c3ccnc(NC4CC4)n3)c(-c3ccc(F)cc3)nn2c1	Tyrosine-protein kinase Mer (Homo sapiens) (UniProt Q12866)	%	2.56
CC1=C(C(=O)Nc2ccc3[nH]nc(C)c3c2)C(c2ccc(C(F)(F)F)cc2)CC(=O)N1 (centres undefined)	Tyrosine-protein kinase Mer (Homo sapiens) (UniProt Q12866)	%	5.55
COc1cc(N2CCN(C(C)C)CC2)ccc1Nc1nc(Nc2cccc3ncccc23)c2cc[nH]c2n1	Tyrosine-protein kinase Mer (Homo sapiens) (UniProt Q12866)	%	2.09
CC1=C(C(=O)Nc2ccc3[nH]ncc3c2)C(c2ccc(F)cc2)N=C(c2ccc(C(F)(F)F)nc2)N1 (centres undefined)	Tyrosine-protein kinase Mer (Homo sapiens) (UniProt Q12866)	%	2.57

====

- measurement.target: Serine/threonine-protein kinase SIK2 (Homo sapiens) (UniProt Q9H0K1)
- Sequence (Q9H0K1 whole entry, looked up): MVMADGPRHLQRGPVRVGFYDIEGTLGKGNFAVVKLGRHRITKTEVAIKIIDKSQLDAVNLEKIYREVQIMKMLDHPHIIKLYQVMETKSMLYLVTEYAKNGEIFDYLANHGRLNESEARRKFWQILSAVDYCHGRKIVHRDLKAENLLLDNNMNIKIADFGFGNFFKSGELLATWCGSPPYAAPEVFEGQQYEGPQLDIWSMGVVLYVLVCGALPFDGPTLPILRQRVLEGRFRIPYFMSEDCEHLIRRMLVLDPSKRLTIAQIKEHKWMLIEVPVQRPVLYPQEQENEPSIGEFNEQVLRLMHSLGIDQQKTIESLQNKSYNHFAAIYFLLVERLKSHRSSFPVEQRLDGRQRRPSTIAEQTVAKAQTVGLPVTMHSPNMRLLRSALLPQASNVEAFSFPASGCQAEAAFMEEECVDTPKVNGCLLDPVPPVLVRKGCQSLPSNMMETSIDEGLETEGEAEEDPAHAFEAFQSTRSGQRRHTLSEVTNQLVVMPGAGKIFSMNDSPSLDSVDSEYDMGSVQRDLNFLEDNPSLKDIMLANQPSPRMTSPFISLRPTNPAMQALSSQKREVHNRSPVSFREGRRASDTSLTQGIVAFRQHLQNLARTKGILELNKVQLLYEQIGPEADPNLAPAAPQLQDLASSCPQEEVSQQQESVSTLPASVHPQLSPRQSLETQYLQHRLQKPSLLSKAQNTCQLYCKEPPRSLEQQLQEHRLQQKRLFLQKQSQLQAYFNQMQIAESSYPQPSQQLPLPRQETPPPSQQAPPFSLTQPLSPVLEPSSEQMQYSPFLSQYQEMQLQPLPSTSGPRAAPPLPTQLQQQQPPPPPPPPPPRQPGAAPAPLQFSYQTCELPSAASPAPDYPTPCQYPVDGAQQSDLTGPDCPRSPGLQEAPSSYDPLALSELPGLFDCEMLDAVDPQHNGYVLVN
- study.conditions: at 0.1 µM
- Description: GSK_PKIS: SNF1LK2 (QIK) mean inhibition at 0.1 uM [Nanosyn]

smiles.str	measurement.target	measurement.unit	inhibition
COC(=O)Nc1nc2ccc(Oc3ccc(NC(=O)Nc4cc(C(F)(F)F)ccc4F)cc3)cc2s1	Serine/threonine-protein kinase SIK2 (Homo sapiens) (UniProt Q9H0K1)	%	0.97
CCOc1ccc2c(-c3ccnc(Nc4cc(OC)cc(C(F)(F)F)c4)n3)cnn2n1	Serine/threonine-protein kinase SIK2 (Homo sapiens) (UniProt Q9H0K1)	%	-0.16
c1ccc(-c2n[nH]cc2-c2ccnc(-c3ccc(OCCn4ccnc4)cc3)c2)nc1	Serine/threonine-protein kinase SIK2 (Homo sapiens) (UniProt Q9H0K1)	%	0.8

====

Each entry below lists one item and its recorded inhibition value.
- measurement.target: Protein kinase C beta type (Homo sapiens) (UniProt P05771);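 further: measured against the PKC-beta2 splice variant, with values reported as mean percent inhibition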
- Sequence (P05771 2-671 limits assumed): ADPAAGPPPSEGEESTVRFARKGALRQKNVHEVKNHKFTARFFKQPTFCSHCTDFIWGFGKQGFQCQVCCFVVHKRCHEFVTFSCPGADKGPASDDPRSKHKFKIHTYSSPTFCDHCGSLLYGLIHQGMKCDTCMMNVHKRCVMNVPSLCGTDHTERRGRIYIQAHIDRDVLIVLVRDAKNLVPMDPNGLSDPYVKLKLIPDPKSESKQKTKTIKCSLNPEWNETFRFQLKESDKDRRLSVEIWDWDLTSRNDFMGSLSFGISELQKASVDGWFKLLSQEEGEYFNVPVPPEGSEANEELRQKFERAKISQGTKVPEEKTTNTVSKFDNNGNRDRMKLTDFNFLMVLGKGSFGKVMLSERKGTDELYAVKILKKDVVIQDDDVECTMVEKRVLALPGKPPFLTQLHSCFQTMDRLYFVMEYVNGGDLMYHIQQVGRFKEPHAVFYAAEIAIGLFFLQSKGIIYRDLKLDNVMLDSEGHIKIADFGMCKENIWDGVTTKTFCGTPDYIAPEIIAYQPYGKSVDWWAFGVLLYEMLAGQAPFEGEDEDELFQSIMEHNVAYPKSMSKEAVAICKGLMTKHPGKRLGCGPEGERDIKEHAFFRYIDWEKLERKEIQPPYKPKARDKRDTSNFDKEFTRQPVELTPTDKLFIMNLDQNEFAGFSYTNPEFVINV
- study.conditions: at 0.1 µM
- Description: GSK_PKIS: PKC-beta2 (splice variant) mean inhibition at 0.1 uM [Nanosyn]

smiles.str	inhibition [%]
Cn1c(-c2nonc2N)nc2cnccc21	1.16
O=C(Nc1n[nH]c2nnc(-c3cccnc3)cc12)C1CC1	0.49
c1cnn2ncc(-c3ccnc(NCCCN4CCOCC4)n3)c2c1	1.96

====

This listing pairs compounds with measured inhibition.
- measurement.target: Dual specificity tyrosine-phosphorylation-regulated kinase 1A (Homo sapiens) (UniProt Q13627)
- study.conditions: at 0.1 µM
- Description: GSK_PKIS: DYRK1A mean inhibition at 0.1 uM [Nanosyn]
reported.property: inhibition (%)

compound	quantitative.result
Cc1cc(O)cc(C)c1/C=C/c1cncc(C(=O)OC(C)(C)C)c1	5.61
COc1cc2c(cc1Nc1nc(Nc3cccc(F)c3C(N)=O)c3cc[nH]c3n1)N(C(=O)CN1CCN(C(C)C)CC1)CC2	1.82
CN1CCC(n2cnc(-c3ccc(F)cc3)c2-c2ccnc(NCCO)n2)CC1	3.36
NC(=O)c1ccc2c(-c3ccnc(NCCCO)n3)c(-c3ccc(F)cc3)nn2c1	7.25
CC1=C(C(=O)Nc2ccc3[nH]nc(C)c3c2)C(c2ccc(C(F)(F)F)cc2)CC(=O)N1 (stereo not drawn)	2.93
Cc1ccc(-c2cc3c(NC(=O)C4CC4)ncnc3o2)cc1	4.14
COc1ccc(-c2nn3ncccc3c2-c2ccnc(Nc3ccc(F)c(F)c3)n2)cc1	2.77
Cc1c2ccc(N(C)c3ccnc(Nc4cccc(S(N)(=O)=O)c4)n3)cc2nn1C	-1.03
CS(=O)(=O)CCNCc1ccoc1-c1ccc2ncnc(Nc3ccc(OCc4ccccc4)cc3)c2c1	1.18
CNC(=O)c1ncccc1Nc1nc(Nc2cc3c(cc2OC)CCCN3C(=O)CN(C)C)nc2[nH]ccc12	3.21
CN(c1ccc(NC(=O)NCCN2CCOCC2)cc1)c1ccnc(Nc2ccc(CS(C)(=O)=O)cc2)n1	1.69
Cn1c(-c2nonc2N)nc2cnccc21	25.1
Fc1cccc(COc2ccc(Nc3ncncc3C#Cc3ccccc3)cc2Cl)c1	2.88
